# subject.of.test: SpNbp2
# test: SPOT peptide array binding signal intensity (averaged, normalized) (arbitrary units (background-subtracted, floor 0; scale differs between SH3 domains)); higher = stronger binding of the SH3 domain to the peptide
measure: SPOT peptide array binding signal intensity

[[record]]
binder = "NPLPKEPRLPKRKVA"
value_modifier = "="
observed_measurement = 27

[[record]]
binder = "VLRFLGFPLPIFEKG"
value_modifier = "="
observed_measurement = 37.5

[[record]]
binder = "KNRKNLPTIPIRLSG"
value_modifier = "="
observed_measurement = 336

[[record]]
binder = "TSIEIPKRSPLRFTS"
value_modifier = "≤"
observed_measurement = 0

[[record]]
binder = "IPSRPAPKPPSSASA"
value_modifier = "="
observed_measurement = 65

[[record]]
binder = "VQQDSLPKLPFRSWG"
value_modifier = "="
observed_measurement = 1

[[record]]
binder = "HAPPLPPTAPPPPSL"
value_modifier = "≤"
observed_measurement = 0

[[record]]
binder = "DLFKPLPEPPTELGR"
value_modifier = "≤"
observed_measurement = 0

[[record]]
binder = "TEVPIPRRPPPPQAA"
value_modifier = "="
observed_measurement = 1

[[record]]
binder = "MPAPPPPPPPPPGAF"
value_modifier = "≤"
observed_measurement = 0

[[record]]
binder = "SSTPTTPERPKRKSG"
value_modifier = "≤"
observed_measurement = 0

[[record]]
binder = "QRIRKIPGIPLMSVG"
value_modifier = "="
observed_measurement = 359

[[record]]
binder = "PAPPPPPRASRPTPN"
value_modifier = "="
observed_measurement = 29.5

[[record]]
binder = "GTIARPLFLVVLFFI"
value_modifier = "="
observed_measurement = 160

[[record]]
binder = "RVRKTHVPASKRPSG"
value_modifier = "="
observed_measurement = 78

